Target: T1, VOP 32A-6 (VZ+434a) (synthetic)
T1 chain: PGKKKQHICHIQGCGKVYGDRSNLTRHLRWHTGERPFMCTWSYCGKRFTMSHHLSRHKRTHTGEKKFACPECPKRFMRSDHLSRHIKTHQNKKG
Assay: EMSA
Conditions: tags: MBP fusion (pMal-c2), SP1 backbone
pKd: −log10 of the molar value.

binder	pKd
VOP 32A/32B target (dsDNA) DNA 1: GGGGGTGAC DNA 2: GTCACCCCC	> 10.70
